Data provenance is paper PMC4300089.

assayedTarget: PKA-IIβ (Homo sapiens, UniProt P31323)
Construct: made in house
Sequence (P31323 whole entry): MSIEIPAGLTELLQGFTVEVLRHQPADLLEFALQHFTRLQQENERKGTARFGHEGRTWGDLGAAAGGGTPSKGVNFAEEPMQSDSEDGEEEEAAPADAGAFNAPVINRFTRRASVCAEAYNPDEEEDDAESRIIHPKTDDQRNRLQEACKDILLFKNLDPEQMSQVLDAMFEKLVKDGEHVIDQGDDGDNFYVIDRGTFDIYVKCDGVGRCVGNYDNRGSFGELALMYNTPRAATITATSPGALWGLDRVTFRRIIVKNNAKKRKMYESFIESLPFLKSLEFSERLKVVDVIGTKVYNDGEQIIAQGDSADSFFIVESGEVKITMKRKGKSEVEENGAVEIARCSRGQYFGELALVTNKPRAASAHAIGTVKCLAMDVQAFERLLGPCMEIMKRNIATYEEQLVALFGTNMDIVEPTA
experimentSummary: PKA activity assay, PKA-IIβ
Format: biochemical
condition: PKAIIβ; concentration 1.00E-01 μM
Would you mind telling me the reported A (PKA activity) of each entry?
Numbers only, in U/mg.

Guide cases for A (PKA activity), answers given:
# molecule, assayedTarget, A (PKA activity), U/mg
records = [
    ("COC1C2OP(=O)(O)OCC2OC1n1c(Sc2ccc(Cl)cc2)nc2c(N)ncnc21 [D-007, 8-pCPT-2′-O-Me-cAMP, reference compound]", "PKA-IIβ (Homo sapiens, UniProt P31323)", 6.554),
    ("Nc1ncnc2c1nc(SCc1ccccc1)n2[C@@H]1O[C@@H]2CO[P@](O)(=S)O[C@H]2[C@H]1O", "PKA-IIβ (Homo sapiens, UniProt P31323)", "1.08E+01"),
    ("Cc1ccc(CSc2nc3c(N)ncnc3n2[C@@H]2O[C@@H]3CO[P@](O)(=S)O[C@H]3[C@H]2O)cc1", "PKA-IIβ (Homo sapiens, UniProt P31323)", 1.472),
]

Then there is this molecule:
Supply A (PKA activity) value. Item: Nc1ncnc2c1ncn2[C@@H]1O[C@@H]2COP(=O)(O)O[C@H]2[C@H]1O [cAMP, reference compound] 1.13E+01

###

assayedTarget: PKA-IIα (Homo sapiens)
Construct: made in house
experimentSummary: PKA activity assay, PKA-IIα
Type: biochemical
condition: PKAIIα; concentration 1.00E-02 μM
Experimental: The recombinant human PKA catalytic subunit (Cα1) and the four human PKA regulatory subunits (RIα, RIβ, RIIα, RIIβ) were expressed, purified, and characterized as described. […] The apparent activation constants (Kact) were determined by fitting the concentration-dependent activity to a sigmoid dose-response model.
Could you please report measured A (PKA activity) for the items listed next?
Give bare numbers, in U/mg.

Please review the following examples before continuing.
# compound, assayedTarget, endpointUnit, A (PKA activity)
measured = [
    ("Nc1ncnc2c1nc(SCc1ccccc1)n2[C@@H]1O[C@@H]2CO[P@](O)(=S)O[C@H]2[C@H]1O", "PKA-IIα (Homo sapiens)", "U/mg", 5.815),
    ("Nc1ncnc2c1ncn2[C@@H]1O[C@@H]2COP(=O)(O)O[C@H]2[C@H]1O [cAMP, reference compound]", "PKA-IIα (Homo sapiens)", "U/mg", 7.553),
    ("COC1C2OP(=O)(O)OCC2OC1n1c(Sc2ccc(Cl)cc2)nc2c(N)ncnc21 [D-007, 8-pCPT-2′-O-Me-cAMP, reference compound]", "PKA-IIα (Homo sapiens)", "U/mg", 4.453),
]

Quote PKA-IIα (Homo sapiens) A (PKA activity) for entry Cc1ccc(CSc2nc3c(N)ncnc3n2[C@@H]2O[C@@H]3CO[P@](O)(=S)O[C@H]3[C@H]2O)cc1 . 4.542

###

assayedTarget: PKA-IIα (Homo sapiens, UniProt P13861)
Construct: made in house
Sequence (P13861 whole entry): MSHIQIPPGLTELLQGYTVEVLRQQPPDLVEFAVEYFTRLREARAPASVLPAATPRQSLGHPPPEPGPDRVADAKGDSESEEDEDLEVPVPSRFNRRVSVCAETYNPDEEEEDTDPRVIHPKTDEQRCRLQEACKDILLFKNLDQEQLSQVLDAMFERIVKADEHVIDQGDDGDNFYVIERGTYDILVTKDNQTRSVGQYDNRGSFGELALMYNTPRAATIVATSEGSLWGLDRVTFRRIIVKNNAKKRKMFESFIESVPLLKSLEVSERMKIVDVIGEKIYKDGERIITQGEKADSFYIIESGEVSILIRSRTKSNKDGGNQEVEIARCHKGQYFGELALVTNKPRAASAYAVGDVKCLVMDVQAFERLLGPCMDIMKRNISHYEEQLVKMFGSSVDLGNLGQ
experimentSummary: PKA activity assay, PKA-IIα
Assay type: biochemical
condition: PKAIIα; concentration 1.00E-01 μM
observable: A (PKA activity)

# annotated cases, reported A (PKA activity) shown
# compound, valueReported
data = [
    ("Nc1ncnc2c1ncn2[C@@H]1O[C@@H]2COP(=O)(O)O[C@H]2[C@H]1O [cAMP, reference compound]", "1.58E+01 U/mg"),
    ("COC1C2OP(=O)(O)OCC2OC1n1c(Sc2ccc(Cl)cc2)nc2c(N)ncnc21 [D-007, 8-pCPT-2′-O-Me-cAMP, reference compound]", "4.917 U/mg"),
    ("Cc1ccc(CSc2nc3c(N)ncnc3n2[C@@H]2O[C@@H]3CO[P@](O)(=S)O[C@H]3[C@H]2O)cc1", "5.026 U/mg"),
]

Now for another entry.
Give PKA-IIα (Homo sapiens, UniProt P13861) A (PKA activity) for the following compound: Nc1ncnc2c1nc(SCc1ccccc1)n2[C@@H]1O[C@@H]2CO[P@](O)(=S)O[C@H]2[C@H]1O 1.09E+01 U/mg
